Tested on: MDA-MB-468 spheroids with HUVEC/MSC, viability
test.description: Anticancer human tumor MDA-MB-468 cell line growth inhibition [PI3K];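 note: spheroids exposed to agents for seven days before readout; 100% = DMSO vehicle control viability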
protocol.conditions: second compound 0.0316 µM; first compound 0.0316 µM; stronger effect = lower value
recorded.metric: viability, T/C (%)

| molecule | quantitative.readout |
| --- | --- |
| CC1(C)CCC(CN2CCN(c3ccc(C(=O)NS(=O)(=O)c4ccc(NCC5CCOCC5)c([N+](=O)[O-])c4)c(Oc4cnc5[nH]ccc5c4)c3)CC2)=C(c2ccc(Cl)cc2)C1 + CC(Nc1ncnc2nc[nH]c12)c1cc2cccc(Cl)c2c(=O)n1-c1ccccc1 | 90.5 |
| C=CC(=O)N1CCN(c2nc(=O)n(-c3c(C)ccnc3C(C)C)c3nc(-c4c(O)cccc4F)c(F)cc23)C(C)C1 (stereo unspecified) + CC(Nc1ncnc2nc[nH]c12)c1cc2cccc(Cl)c2c(=O)n1-c1ccccc1 | 88.1 |
| C=CC(=O)N1CCN(c2nc(=O)n(-c3c(C)ccnc3C(C)C)c3nc(-c4c(O)cccc4F)c(F)cc23)C(C)C1 (stereo unspecified) + CC(Nc1ccc2c(c1)OCCn1cc(N3C(=O)OCC3C(F)F)nc1-2)C(N)=O | 92.5 |
| Cn1nccc1Nc1nccc(-c2ccn(C(CO)c3ccc(Cl)c(F)c3)c(=O)c2)n1 (stereo unspecified) + CC(Nc1ccc2c(c1)OCCn1cc(N3C(=O)OCC3C(F)F)nc1-2)C(N)=O | 95.3 |
| Cn1ncnc1[C@H]1c2n[nH]c(=O)c3cc(F)cc(c23)N[C@@H]1c1ccc(F)cc1 + CC(Nc1ccc2c(c1)OCCn1cc(N3C(=O)OCC3C(F)F)nc1-2)C(N)=O | 74.5 |
| CCN1CCN(Cc2ccc(Nc3ncc(F)c(-c4cc(F)c5nc(C)n(C(C)C)c5c4)n3)nc2)CC1 + Cc1nc(NC(=O)N2CCCC2C(N)=O)sc1-c1ccnc(C(C)(C)C(F)(F)F)c1 | 83.8 |
| C#Cc1c(F)ccc2cc(O)cc(-c3ncc4c(N5CC6CCC(C5)N6)nc(OCC56CCCN5CC(F)C6)nc4c3F)c12 (stereo unspecified) + Cc1nc(NC(=O)N2CCCC2C(N)=O)sc1-c1ccnc(C(C)(C)C(F)(F)F)c1 | 83.2 |
| C#Cc1c(F)ccc2cc(O)cc(-c3ncc4c(N5CC6CCC(C5)N6)nc(OCC56CCCN5CC(F)C6)nc4c3F)c12 (stereo unspecified) + CC(Nc1ncnc2nc[nH]c12)c1cc2cccc(Cl)c2c(=O)n1-c1ccccc1 | 104 |
| Cn1nccc1Nc1nccc(-c2ccn(C(CO)c3ccc(Cl)c(F)c3)c(=O)c2)n1 (stereo unspecified) + Cc1nc(NC(=O)N2CCCC2C(N)=O)sc1-c1ccnc(C(C)(C)C(F)(F)F)c1 | 88.7 |
| CCCS(=O)(=O)Nc1ccc(F)c(C(=O)c2c[nH]c3ncc(-c4ccc(Cl)cc4)cc23)c1F + Cc1nc(NC(=O)N2CCCC2C(N)=O)sc1-c1ccnc(C(C)(C)C(F)(F)F)c1 | 89.5 |
| CC1(C)CCC(CN2CCN(c3ccc(C(=O)NS(=O)(=O)c4ccc(NCC5CCOCC5)c([N+](=O)[O-])c4)c(Oc4cnc5[nH]ccc5c4)c3)CC2)=C(c2ccc(Cl)cc2)C1 + Cc1nc(NC(=O)N2CCCC2C(N)=O)sc1-c1ccnc(C(C)(C)C(F)(F)F)c1 | 93.8 |
